Where do these numbers come from? They come from patent EP0330052B1.

Listed here are compounds together with their documented LD50.
- measurement description: Acute toxicity (LD50), mouse
- condition parameters: in vivo, po, Maus, read-out: LD₅₀ p.o. (converted)
endpoint name: LD50 (mg/kg)

| compound | value unit | reported |
| --- | --- | --- |
| COc1ccc(-c2nc3ccc(C4=NNC(=O)CC4C)cc3[nH]2)cc1 (stereo not drawn) [Verbindung A] | mg/kg | 600 |
| COc1ccc(CCN(C)CCCN2CCc3cc(OC)c(OC)cc3CC2=O)cc1OC [Verbindung E] | mg/kg | 1350 |
| COc1ccc(CCN2CCCC(CN3CCc4cc(OC)c(OC)cc4CC3=O)C2)cc1OC (stereo not drawn) [D] | mg/kg | 720 |
